Recorded viability, T/C values for a group of molecules are listed next.
test system: 958767-090-R-J1-PDC spheroid growth; assay: Anticancer human tumor 958767-090-R-J1-PDC patient-derived head and neck squamous carcinoma cell line growth inhibition [IpAb]; settings: second compound 1 µM; first compound 0.0949 µM; stronger effect = lower value; spheroids with HUVEC and MSC
property measured: viability, T/C (%)

1. Cn1cnc2c(F)c(Nc3ccc(Br)cc3Cl)c(C(=O)NOCCO)cc21 + CCN1CCN(Cc2ccc(Nc3ncc(F)c(-c4cc(F)c5nc(C)n(C(C)C)c5c4)n3)nc2)CC1 ... 51.9
2. CC(=O)c1c(C)c2cnc(Nc3ccc(N4CCNCC4)cn3)nc2n(C2CCCC2)c1=O + CC(C)NCC(C(=O)N1CCN(c2ncnc3c2C(C)CC3O)CC1)c1ccc(Cl)cc1 ... 47.2
3. CC(C)(C)c1cnc(CSc2cnc(NC(=O)C3CCNCC3)s2)o1 + CC(C)NCC(C(=O)N1CCN(c2ncnc3c2C(C)CC3O)CC1)c1ccc(Cl)cc1 ... 50.4

----------
system: 958767-090-R-J1-PDC spheroid growth; assay: Anticancer human tumor 958767-090-R-J1-PDC cell line growth inhibition [IpAb]; details: curve of first compound; second compound 0.316 µM; spheroids with HUVEC and MSC;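 note: spheroids exposed to agents for 7 days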
pIC50: −log10 of the molar value.
property measured: pIC50

1) CCCS(=O)(=O)Nc1ccc(F)c(C(=O)c2c[nH]c3ncc(-c4ccc(Cl)cc4)cc23)c1F + CC(C)NCC(C(=O)N1CCN(c2ncnc3c2C(C)CC3O)CC1)c1ccc(Cl)cc1 ... 5.04
2) CC1(C)CCC(CN2CCN(c3ccc(C(=O)NS(=O)(=O)c4ccc(NCC5CCOCC5)c([N+](=O)[O-])c4)c(Oc4cnc5[nH]ccc5c4)c3)CC2)=C(c2ccc(Cl)cc2)C1 + CC(C)NCC(C(=O)N1CCN(c2ncnc3c2C(C)CC3O)CC1)c1ccc(Cl)cc1 ... 5.47
3) CC1(C)CCC(CN2CCN(c3ccc(C(=O)NS(=O)(=O)c4ccc(NCC5CCOCC5)c([N+](=O)[O-])c4)c(Oc4cnc5[nH]ccc5c4)c3)CC2)=C(c2ccc(Cl)cc2)C1 + CCN1CCN(Cc2ccc(Nc3ncc(F)c(-c4cc(F)c5nc(C)n(C(C)C)c5c4)n3)nc2)CC1 ... 5.41
4) CC(C)n1nc(-c2ccc3oc(N)nc3c2)c2c(N)ncnc21 + CCN1CCN(Cc2ccc(Nc3ncc(F)c(-c4cc(F)c5nc(C)n(C(C)C)c5c4)n3)nc2)CC1 ... 7.61

----------
Recorded viability, T/C values for a group of compounds are listed next.
system: 958767-090-R-J1-PDC spheroid growth; test: Anticancer human tumor 958767-090-R-J1-PDC cell line growth inhibition [IpAb]; conditions: second compound 10 µM; first compound 0.1 µM; stronger effect = lower value; spheroids with HUVEC and MSC;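 note: spheroids exposed to agents for 7 days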;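 for viability, T/C: 100% = DMSO vehicle control wells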
property measured: viability, T/C (%)

1. C=CC(=O)N1CCN(c2nc(=O)n(-c3c(C)ccnc3C(C)C)c3nc(-c4c(O)cccc4F)c(F)cc23)C(C)C1 (configuration not stated) + CC(C)NCC(C(=O)N1CCN(c2ncnc3c2C(C)CC3O)CC1)c1ccc(Cl)cc1 ... 54.6
2. Cn1nccc1Nc1nccc(-c2ccn(C(CO)c3ccc(Cl)c(F)c3)c(=O)c2)n1 (configuration not stated) + CC(C)NCC(C(=O)N1CCN(c2ncnc3c2C(C)CC3O)CC1)c1ccc(Cl)cc1 ... 35
3. Cn1ncc(Cl)c1-c1cc(C(=O)NC(CN)Cc2cccc(F)c2)sc1Cl (configuration not stated) + CC(C)NCC(C(=O)N1CCN(c2ncnc3c2C(C)CC3O)CC1)c1ccc(Cl)cc1 ... 36.3
4. C=CCn1c(=O)c2cnc(Nc3ccc(N4CCN(C)CC4)cc3)nc2n1-c1cccc(C(C)(C)O)n1 + CC(C)NCC(C(=O)N1CCN(c2ncnc3c2C(C)CC3O)CC1)c1ccc(Cl)cc1 ... 32.4
5. CCCS(=O)(=O)Nc1ccc(F)c(C(=O)c2c[nH]c3ncc(-c4ccc(Cl)cc4)cc23)c1F + CC(C)NCC(C(=O)N1CCN(c2ncnc3c2C(C)CC3O)CC1)c1ccc(Cl)cc1 ... 50.3
6. Cn1ncnc1[C@H]1c2n[nH]c(=O)c3cc(F)cc(c23)N[C@@H]1c1ccc(F)cc1 + CC(C)NCC(C(=O)N1CCN(c2ncnc3c2C(C)CC3O)CC1)c1ccc(Cl)cc1 ... 42
7. CC1(C)CCC(CN2CCN(c3ccc(C(=O)NS(=O)(=O)c4ccc(NCC5CCOCC5)c([N+](=O)[O-])c4)c(Oc4cnc5[nH]ccc5c4)c3)CC2)=C(c2ccc(Cl)cc2)C1 + CC(C)NCC(C(=O)N1CCN(c2ncnc3c2C(C)CC3O)CC1)c1ccc(Cl)cc1 ... 27
